System: S. mansoni adult worms
Assay: Motility assay on adult parasites (pixel displacement, relative to DMSO control)
Format: cell-based, Schistosoma mansoni
Conditions: secondary screen, 10 μM, D1, Male adult worms
# cutoff -0.03 applies to Fractional motility; >= gives rule met, < gives rule not met

{"columns": ["Compound", "Class name"],
 "data": [
  ["O=C1CCc2ccc(OCCCCN3CCN(c4cccc(Cl)c4Cl)CC3)cc2N1", "rule met"],
  ["Cc1cnc(-c2cc(N3CCN(C(=O)CCS(C)(=O)=O)CC3)ncc2Cl)c(C)c1", "rule not met"],
  ["C=CC[C@]1(O)CC[C@H]2[C@@H]3CCC4=CC(=O)CCC4=C3C=C[C@@]21C", "rule not met"],
  ["O=c1[nH]c2ccc(Cl)cc2c(N[C@@H]2CN3CCC2CC3)c1-c1nc2ccccc2[nH]1", "rule met"],
  ["NCC(=O)Nc1ccc(-n2nc(C(F)(F)F)cc2-c2ccc3c(ccc4ccccc43)c2)cc1", "rule met"],
  ["C=C1C(=O)O[C@H]2[C@H]1CC/C(C)=C/CC[C@@]1(C)O[C@@H]21 [(-)-Parthenolide]", "rule met"],
  ["Cc1ccc(S(=O)(=O)c2ccc([N+](=O)[O-])o2)cc1", "rule met"],
  ["O=C(C1CCCCC1)N1CC(=O)N2CCc3ccccc3C2C1 (centres unmarked)", "rule not met"]
]}

* * *

Each entry below carries its reported Fractional motility.
System: S. mansoni schistosomulae
Test: Motility assay on schistosomulae (pixel displacement, relative to DMSO control)
Assay type: cell-based, Schistosoma mansoni
Conditions: schistosomulae, secondary screen, 24h exposure, read at D1, 10 µM

{"columns": ["Compound", "Subject of test", "Fractional motility"],
 "data": [
  ["Cc1ccc(C(=O)N(CCCN)[C@@H](c2oc3cc(Cl)ccc3c(=O)c2Cc2ccccc2)C(C)C)cc1", "S. mansoni schistosomulae", 1.32],
  ["CCc1ccc(OCc2ccccc2C(=O)Nc2ccc3nc(C)cc(N)c3c2)cc1", "S. mansoni schistosomulae", -1.00],
  ["O=C(C1CCCCC1)N1CC(=O)N2CCc3ccccc3C2C1 (centres unmarked)", "S. mansoni schistosomulae", -0.47],
  ["C[C@@H](NCCCc1cccc(C(F)(F)F)c1)c1cccc2ccccc12", "S. mansoni schistosomulae", -0.83],
  ["CCCCCCCCc1ccc(CCC(N)(CO)CO)cc1", "S. mansoni schistosomulae", 2.04],
  ["COc1ccc2cc1Oc1ccc(cc1)C[C@H]1c3cc(c(OC)cc3CCN1C)Oc1c(OC)c(OC)cc3c1[C@H](C2)N(C)CC3", "S. mansoni schistosomulae", -0.39],
  ["CCCCCCCCOc1ccccc1C(=O)Nc1ccc(C(=O)OCC[N+](C)(CC)CC)cc1", "S. mansoni schistosomulae", 0.56],
  ["NC(=O)C(c1ccccc1)(c1ccccc1)[C@@H]1CCN(CCc2ccc3c(c2)CCO3)C1", "S. mansoni schistosomulae", -0.70]
]}

* * *

Quick reference for activity at 1 µM among some molecules
Test system: S. mansoni schistosomulae
Assay: Motility assay on schistosomulae (pixel displacement, relative to DMSO control)
Format: cell-based, Schistosoma mansoni
Conditions: Schistosoma mansoni; schistosomulae, secondary screen, 24h exposure, read at D1, 1 µM; read-out: Fractional motility
Measurement kind: activity at 1 µM (%)

{"columns": ["Molecule", "Measurement kind", "Observed measurement"],
 "data": [
  ["Cc1ccc(C(=O)N(CCCN)[C@@H](c2oc3cc(Cl)ccc3c(=O)c2Cc2ccccc2)C(C)C)cc1 [SB743921]", "activity at 1 µM", 74],
  ["CNCc1ccc(-c2cc(-c3nc(-c4ccc(S(=O)(=O)C(C)C)cc4)cnc3N)on2)cc1 [VE-822]", "activity at 1 µM", -37],
  ["Cc1ccc(C(=O)N(CCCN)[C@@H](c2nc3cc(Cl)ccc3c(=O)n2Cc2ccccc2)C(C)C)cc1 [Ispinesib]", "activity at 1 µM", 24],
  ["CN(C)CCC=C1c2ccccc2CCc2ccccc21 [Amitriptyline]", "activity at 1 µM", 286],
  ["C=CC(=O)N1CCC[C@@H](n2nc(-c3ccc(Oc4ccccc4)cc3)c3c(N)ncnc32)C1 [Ibrutinib]", "activity at 1 µM", -18],
  ["O=C(C1CCCCC1)N1CC(=O)N2CCc3ccccc3C2C1 (centres unmarked) [PZQ, praziquantel]", "activity at 1 µM", -30],
  ["CCCN1C[C@H](CSC)C[C@@H]2c3cccc4[nH]cc(c34)C[C@H]21 [Pergolide]", "activity at 1 µM", 139],
  ["C=CC(=O)Nc1cccc(Oc2nc(Nc3ccc(N4CCN(C)CC4)cc3OC)ncc2Cl)c1 [WZ4002]", "activity at 1 µM", -58]
]}
